assay: self-splicing fitness, log relative to wild type (ln ratio); higher = more splicing; Tetrahymena group I intron in knt gene, E. coli kanamycin selection, DiMSum; sequences stand for … in CUCUCU…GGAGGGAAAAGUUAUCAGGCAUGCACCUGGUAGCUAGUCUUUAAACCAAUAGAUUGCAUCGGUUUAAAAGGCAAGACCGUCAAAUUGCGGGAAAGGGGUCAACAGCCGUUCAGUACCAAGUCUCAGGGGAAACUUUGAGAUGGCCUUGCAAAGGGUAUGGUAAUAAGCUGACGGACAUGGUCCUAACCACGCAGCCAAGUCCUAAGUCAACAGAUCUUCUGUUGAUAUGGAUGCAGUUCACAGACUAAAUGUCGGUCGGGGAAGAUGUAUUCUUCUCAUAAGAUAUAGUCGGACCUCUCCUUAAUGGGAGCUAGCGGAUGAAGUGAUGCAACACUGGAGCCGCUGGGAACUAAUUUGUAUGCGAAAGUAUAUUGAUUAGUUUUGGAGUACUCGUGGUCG; conditions: 37 °C;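 note: selection with 25 µg/mL kanamycin versus none on LB agar overnight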
Would you mind labelling by self-splicing fitness (ln)? At or over -2 is met, under is not met.

Task: Is reported self-splicing fitness (ln) greater than or equal to -2 here: CCGCAGCAAUAUUACGUCCC
Output: not met

Task: Is reported self-splicing fitness (ln) greater than or equal to -2 here: CGAUAGCAAUAUUACGUAAC
Output: not met

Task: Is reported self-splicing fitness (ln) greater than or equal to -2 here: CUAGAGCAAUAUUACGUUCA
Output: met

Task: Is reported self-splicing fitness (ln) greater than or equal to -2 here: UCAUAGCAAUAUUACGUUUG
Output: met

Task: Is reported self-splicing fitness (ln) greater than or equal to -2 here: AUUAAGCAAUAUUACGCAUA
Output: met

Task: Is reported self-splicing fitness (ln) greater than or equal to -2 here: CCCCAGCAAUAUUACGCCAC
Output: met

Task: Is reported self-splicing fitness (ln) greater than or equal to -2 here: UCUCAGCAAUAUUACGAUGC
Output: not met

Task: Is reported self-splicing fitness (ln) greater than or equal to -2 here: AGUUAGCAAUAUUACGAAAA
Output: met

Task: Is reported self-splicing fitness (ln) greater than or equal to -2 here: CAAAAGCAAUAUUACGUCAU
Output: not met

Task: Is reported self-splicing fitness (ln) greater than or equal to -2 here: UUAUAGCAAUAUUACGAUAA
Output: met

Task: Is reported self-splicing fitness (ln) greater than or equal to -2 here: AGGUAGCAAUAUUACGAAGC
Output: not met

Task: Is reported self-splicing fitness (ln) greater than or equal to -2 here: AACUAGCAAUAUUACGGGGA
Output: met

Task: Is reported self-splicing fitness (ln) greater than or equal to -2 here: UUCCAGCAAUAUUACGUCCU
Output: not met

Task: Is reported self-splicing fitness (ln) greater than or equal to -2 here: CUGCAGCAAUAUUACGUUAC
Output: not met

Task: Is reported self-splicing fitness (ln) greater than or equal to -2 here: ACGGAGCAAUAUUACGCCAG
Output: met

Task: Is reported self-splicing fitness (ln) greater than or equal to -2 here: UGCCAGCAAUAUUACGCAUU
Output: met

Task: Is reported self-splicing fitness (ln) greater than or equal to -2 here: CCUUAGCAAUAUUACGCAUG
Output: not met

Task: Is reported self-splicing fitness (ln) greater than or equal to -2 here: AUAGAGCAAUAUUACGGCUC
Output: met

Task: Is reported self-splicing fitness (ln) greater than or equal to -2 here: UUUUAGCAAUAUUACGAGGA
Output: met

Task: Is reported self-splicing fitness (ln) greater than or equal to -2 here: GUUGAGCAAUAUUACGGUGG
Output: not met

Task: Is reported self-splicing fitness (ln) greater than or equal to -2 here: GGUAAGCAAUAUUACGCGUG
Output: met

Task: Is reported self-splicing fitness (ln) greater than or equal to -2 here: CCUUAGCAAUAUUACGUGGG
Output: not met

Task: Is reported self-splicing fitness (ln) greater than or equal to -2 here: CUUAAGCAAUAUUACGCAAC
Output: not met

Task: Is reported self-splicing fitness (ln) greater than or equal to -2 here: CCGUAGCAAUAUUACGUGCC
Output: not met

Task: Is reported self-splicing fitness (ln) greater than or equal to -2 here: UAUCAGCAAUAUUACGCAUA
Output: met

Task: Is reported self-splicing fitness (ln) greater than or equal to -2 here: CCAUAGCAAUAUUACGGGUA
Output: not met

Task: Is reported self-splicing fitness (ln) greater than or equal to -2 here: GAUUAGCAAUAUUACGGCCA
Output: met

Task: Is reported self-splicing fitness (ln) greater than or equal to -2 here: AGAUAGCAAUAUUACGGUUG
Output: not met

Task: Is reported self-splicing fitness (ln) greater than or equal to -2 here: CGUUAGCAAUAUUACGUCUC
Output: met

Task: Is reported self-splicing fitness (ln) greater than or equal to -2 here: AAGAAGCAAUAUUACGAGGU
Output: not met

Task: Is reported self-splicing fitness (ln) greater than or equal to -2 here: CACGAGCAAUAUUACGUAGU
Output: not met

Task: Is reported self-splicing fitness (ln) greater than or equal to -2 here: CCCGAGCAAUAUUACGGUUA
Output: met
